B1: NFE2L1 (parent)
chain: TLDGYGIHPKSIDLDNYFTARRLL

- Variants of: B1
- Protocol Summary: protein stability index of a GFP-peptide fusion (GPS, HEK-293T) (PSI 1-6); higher = more stable;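 also: lentivirally expressed fusions sorted by FACS into six bins by GFP to DsRed ratio, PSI derived from sequencing read proportions per bin multiplied by bin number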
- Condition Description: c terminus: a fixed tail appended
Endpoint Label: protein stability index

| Mutation Notation | protein stability index |
| --- | --- |
| L14I | 2.12 |
| F18A | 2.93 |
| L23D | 2.4 |
| K10Q | 2.12 |

Inquiry: May I ask what protein stability index has been recorded for Y17M ?
Reply text: 2.36

Inquiry: Record: K10P
Reply text: 1.73

Inquiry: Record: L24A
Reply text: 2.26

Inquiry: Record: L14M
Reply text: 2.02

Inquiry: Record: T1P
Reply text: 2.37

Inquiry: Record: L24Q
Reply text: 1.85

Inquiry: Record: P9D
Reply text: 1.88

Inquiry: Record: A20R
Reply text: 2.17

Inquiry: Record: R22S
Reply text: 1.69

Inquiry: Record: I12D
Reply text: 3.05

Inquiry: Record: I12T
Reply text: 1.99

Inquiry: Record: G4I
Reply text: 1.65

Inquiry: Record: S11T
Reply text: 1.97

Inquiry: Record: P9Y
Reply text: 1.68

Inquiry: Record: F18T
Reply text: 2.25

Inquiry: Record: L24W
Reply text: 2.31

Inquiry: Record: L23K
Reply text: 3.26

Inquiry: Record: G4N
Reply text: 2.03
